Tested on: MCF-7 cells
Assay: Breast cancer cell viability assay (CellTiter-Glo, 5 days)
Type: cell-based
Details: Homo sapiens, MCF7, 120 h, 5 days' compound exposure
Measured Quantity: IC50

CC/C(=C(/c1ccc(/C=C/C(=O)NS(=O)(=O)c2ccccn2)cc1)c1ccc2[nH]ncc2c1)c1ccc(F)cc1Cl    ≤ 100 nM
CC/C(=C(/c1ccc(/C=C/c2nsc(=O)[nH]2)cc1)c1ccc2[nH]ncc2c1)c1ccc(F)cc1Cl    ≤ 100 nM
CC/C(=C(/c1ccc(/C=C/C(=O)O)cc1)c1ccc2[nH]c(=O)sc2c1)c1ccccc1    > 100 nM
CC/C(=C(/c1ccc(/C=C/C(=O)O)cc1)c1ccn2nccc2c1)c1ccccc1    > 100 nM

Just for reference, patent US9399646B2 is where these values come from.
